Observed IC50 for Prothrombin (Homo sapiens, UniProt P00734), reported per entry below.
recorded_endpoint: IC50 (nM)

- compound: "Cn1c(C(=O)[C@H](CCCNC(=N)N)NC(=O)[C@@H]2CC[C@H]3CN(C(=O)CCc4ccccc4)CC(=O)N32)nc2ccccc21"
  measurement_units: "nM"
  IC50: 51

1 = Cc1nc(C(=O)[C@H](CCCN=C(N)N)NC(=O)[C@@H]2CC[C@H]3CN(C(=O)CCc4ccccc4)CC(=O)N32)sc1CCO
2 = Cn1c(C(=O)[C@H](Cc2cccc(C(=N)N)c2)NC(=O)[C@@H]2CC[C@H]3CN(C(=O)CCc4ccccc4)CC(=O)N32)nc2ccccc21
In terms of reported IC50, does 1 or 2 have the smaller number? Provide the label of your selected option as the answer.
1

I = N=C(N)NCCC[C@H](NC(=O)[C@@H]1CC[C@H]2CN(C(=O)CCc3ccccc3)CC(=O)N21)C(=O)c1ccccn1
II = Cn1c(C(=O)[C@H](CC2CCCN(C(=N)N)C2)NC(=O)[C@@H]2CC[C@H]3CN(C(=O)CCc4ccccc4)CC(=O)N32)nc2ccccc21 (stereo partly drawn)
In terms of reported IC50, does I or II have the smaller number? Provide the label of your selected option as the answer.
I
(I: 340 nM, II: 750 nM)

Attribution: ChEMBL document CHEMBL1132074
